Test system: T1, polyhistidine-tagged full-length human 5MP1 (human, UniProt Q9Y6E2 1-419)
T1 construct: human eIF5-mimic protein 1 (5MP1, BZW2), full length; Preparation of the construct is described in the Supplementary file; also called BZW2; eIF5-mimic protein 1
T1 sequence (looked up): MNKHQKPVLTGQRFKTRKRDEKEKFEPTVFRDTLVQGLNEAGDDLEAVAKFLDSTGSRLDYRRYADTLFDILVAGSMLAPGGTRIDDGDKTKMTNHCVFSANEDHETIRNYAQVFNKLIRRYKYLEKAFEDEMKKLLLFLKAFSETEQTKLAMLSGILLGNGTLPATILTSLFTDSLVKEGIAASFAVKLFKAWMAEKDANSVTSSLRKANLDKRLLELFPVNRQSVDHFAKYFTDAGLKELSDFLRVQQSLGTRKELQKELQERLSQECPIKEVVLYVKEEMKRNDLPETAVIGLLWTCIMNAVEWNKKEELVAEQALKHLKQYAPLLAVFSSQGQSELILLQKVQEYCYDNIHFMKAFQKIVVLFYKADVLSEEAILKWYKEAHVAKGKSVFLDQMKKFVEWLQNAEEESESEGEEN
Protocol details: ITC; a solution of eIF2β 53–136 injected with human 5MP1 constructs; performed as described previously (16)
Condition info: both partners purified
Assay readout: Kd

Binder	Assay readout	Observed measurement
human eIF2β 53–136 (domain or fragment, UniProt P20042 53-136, looked up, human eIF2 beta subunit, residues 53-136, carrying two K-boxes; also called eIF2β_(53–135)) DLEADEEDTRKKDASDDLDDLNFFNQKKKKKKTKKIFDIDEAEEGVKDLKIESDVQEPTEPEDDLDIMLGNKKKKKKNVKFPDE	Kd	~2000 nM
